- Tested on: A549-CANX-COX4
- EXPERIMENT_DESCRIPTION: phenotypically active (imaging signature differs from DMSO and reproducible) at any of 0.3-9 uM (binary (1 = active, 0 = inactive)); higher = active
- TEST_CONDITIONS: treatment time: 24 h
For each of the compounds below, state its phenotypically active.
Answers are plain numbers.

>>> df
                                   molecule  data_value
0  N#CC(CCN1CCC(C(=O)O)(c2ccccc2)CC1)(c1ccccc1)c1ccccc1           0

// each compound listed below needs its phenotypically active
1. CCOc1cc(C=O)ccc1O
2. COc1ccc(C[C@H]2NC[C@H](O)[C@H]2OC(C)=O)cc1
3. Fc1ccccc1C1=NCC(=S)N(CC(F)(F)F)c2ccc(Cl)cc21

Completion:
0
1
0
